TARGET_ENTITY: DYRK1A (Homo sapiens, UniProt Q13627)
Construct: Purified recombinant kinase was incubated with serial 3-fold dilutions of test compounds
EXPERIMENT: DYRK1A kinase assay, Reaction Biology Corporation HotSpot technology (33P ATP)
TEST_PARAMETERS: purified recombinant kinase, 10 µM ATP, 120 min, room temperature
MEASURE: pIC50
Units for pIC50: none; it is -log10 of a concentration expressed in mol/L.

Read off the recorded pIC50 for COC(=N)c1nc2ccc3ncnc(Nc4ccc(F)cc4)c3c2s1 [Compound 8e]
8.22

Read off the recorded pIC50 for CCOC(=N)c1nc2ccc3ncnc(Nc4ccc5c(c4)OCO5)c3c2s1 [Compound 12a]
8.22

Read off the recorded pIC50 for COC(=N)c1nc2ccc3ncnc(Nc4cc(OC)cc(OC)c4)c3c2s1 [Compound 7g]
6.52

Read off the recorded pIC50 for N=C(OCc1ccccc1)c1nc2ccc3ncnc(Nc4ccc5c(c4)OCO5)c3c2s1 [Compound 12c]
7.47

Read off the recorded pIC50 for COC(=N)c1nc2ccc3ncnc(Nc4ccc(Cl)cc4)c3c2s1 [Compound 8a]
8.95

---

Provide the reported IC50 of each item.
TARGET_ENTITY: DYRK1B (Homo sapiens, UniProt Q9Y463)
Construct: Purified recombinant kinase was incubated with serial 3-fold dilutions of test compounds
Sequence (Q9Y463 whole entry): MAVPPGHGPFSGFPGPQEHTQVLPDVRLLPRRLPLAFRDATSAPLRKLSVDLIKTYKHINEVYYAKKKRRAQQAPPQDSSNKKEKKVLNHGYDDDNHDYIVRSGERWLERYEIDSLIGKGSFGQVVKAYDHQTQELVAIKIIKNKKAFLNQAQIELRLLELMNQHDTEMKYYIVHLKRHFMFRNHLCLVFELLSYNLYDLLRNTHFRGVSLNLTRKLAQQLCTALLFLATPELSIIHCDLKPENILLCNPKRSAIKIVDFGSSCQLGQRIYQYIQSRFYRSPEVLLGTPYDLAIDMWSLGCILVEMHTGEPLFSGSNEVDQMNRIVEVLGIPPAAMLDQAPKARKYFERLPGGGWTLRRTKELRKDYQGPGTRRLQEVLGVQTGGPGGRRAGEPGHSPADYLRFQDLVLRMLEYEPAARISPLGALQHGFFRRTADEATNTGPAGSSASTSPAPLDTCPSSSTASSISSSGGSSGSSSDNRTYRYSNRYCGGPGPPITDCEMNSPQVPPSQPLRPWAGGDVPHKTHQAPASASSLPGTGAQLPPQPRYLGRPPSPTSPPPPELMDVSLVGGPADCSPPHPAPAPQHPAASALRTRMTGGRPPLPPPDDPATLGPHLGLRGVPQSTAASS
EXPERIMENT: DYRK1B kinase assay, Reaction Biology Corporation HotSpot technology (33P ATP)
TEST_PARAMETERS: purified recombinant kinase, 10 µM ATP, 120 min, room temperature
State just the number; it will be interpreted in µM.

Read off the recorded IC50 for COC(=N)c1nc2ccc3ncnc(Nc4ccc(C(C)(C)C)cc4)c3c2s1
0.0938

Read off the recorded IC50 for COC(=N)c1nc2ccc3ncnc(Nc4ccc(F)cc4)c3c2s1
0.00964

Read off the recorded IC50 for CC(C)(C)CNc1ncnc2ccc(-c3ccc4c(c3)OCO4)cc12 [NCGC-00189310, reference compound]
0.0206

Read off the recorded IC50 for COC(=N)c1nc2ccc3ncnc(Nc4cc(OC)c(OC)c(OC)c4)c3c2s1
0.486

Read off the recorded IC50 for COC(=N)c1nc2ccc3ncnc(Nc4ccc(OC)cc4)c3c2s1
0.0192

Read off the recorded IC50 for COC(=N)c1nc2ccc3ncnc(Nc4cccc(Cl)c4)c3c2s1
0.0188

Read off the recorded IC50 for CCOC(=N)c1nc2ccc3ncnc(Nc4ccc5c(c4)OCO5)c3c2s1 [Compound 12a]
0.00772

Read off the recorded IC50 for COC(=N)c1nc2ccc3ncnc(Nc4ccc(Br)cc4F)c3c2s1
0.00655

Read off the recorded IC50 for COC(=N)c1nc2ccc3ncnc(Nc4ccc5c(c4)OCO5)c3c2s1
0.0042

---

TARGET_ENTITY: DYRK1A (Homo sapiens, UniProt Q13627)
Construct: Purified recombinant kinase was incubated with serial 3-fold dilutions of test compounds
EXPERIMENT: DYRK1A kinase assay, Reaction Biology Corporation HotSpot technology (33P ATP)
TEST_PARAMETERS: purified recombinant kinase, 10 µM ATP, 120 min, room temperature
Binary call on IC50 with cut-off 5 nM: strictly below means Fulfilled, and equality or higher means Not fulfilled.

State whether 5 nM exceeds IC50 recorded for COC(=N)c1nc2ccc3ncnc(Nc4ccc(Cl)cc4Cl)c3c2s1 .
Fulfilled

State whether 5 nM exceeds IC50 recorded for COC(=N)c1nc2ccc3ncnc(Nc4ccc(OC)cc4)c3c2s1 .
Not fulfilled

State whether 5 nM exceeds IC50 recorded for COC(=N)c1nc2ccc3ncnc(Nc4ccc(C#N)cc4)c3c2s1 .
Fulfilled

State whether 5 nM exceeds IC50 recorded for COC(=N)c1nc2ccc3ncnc(Nc4ccc5c(c4)OCCO5)c3c2s1 .
Not fulfilled

State whether 5 nM exceeds IC50 recorded for COC(=N)c1nc2ccc3ncnc(Nc4cccc(Cl)c4)c3c2s1 .
Not fulfilled

State whether 5 nM exceeds IC50 recorded for COC(=N)c1nc2ccc3ncnc(Nc4ccc(C)cc4)c3c2s1 .
Fulfilled

State whether 5 nM exceeds IC50 recorded for COC(=N)c1nc2ccc3ncnc(Nc4ccc(O)c(F)c4)c3c2s1 .
Not fulfilled

State whether 5 nM exceeds IC50 recorded for C#Cc1cccc(Nc2ncnc3ccc4nc(C(=N)OC)sc4c23)c1 .
Not fulfilled
